- SYSTEM NAME: endothelin receptor (membrane of smooth muscle tissue of porcine aorta) (Sus scrofa)
- Construct: from tissue; host or cells: smooth muscle tissue of porcine aorta (membrane fraction)
- Sequence (Q29010 21-427): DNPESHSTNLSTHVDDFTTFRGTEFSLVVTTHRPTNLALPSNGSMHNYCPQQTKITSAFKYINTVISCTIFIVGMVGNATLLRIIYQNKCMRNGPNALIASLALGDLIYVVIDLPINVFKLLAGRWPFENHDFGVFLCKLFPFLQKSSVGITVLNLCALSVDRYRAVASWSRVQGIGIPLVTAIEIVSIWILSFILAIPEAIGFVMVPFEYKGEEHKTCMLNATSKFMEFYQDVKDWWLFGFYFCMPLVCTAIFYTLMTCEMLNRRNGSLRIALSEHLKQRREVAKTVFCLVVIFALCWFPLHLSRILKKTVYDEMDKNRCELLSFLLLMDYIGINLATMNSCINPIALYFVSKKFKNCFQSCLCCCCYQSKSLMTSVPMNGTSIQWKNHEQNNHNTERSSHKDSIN
- METHOD NOTES: Endothelin binding inhibition test (125I-endothelin-1, porcine aorta smooth muscle membrane)
- MEASUREMENT SETUP: 1.1 μM of the test compound; porcine aorta smooth muscle membrane; 25° C, 4 hours; read-out: 125I-endothelin-1 binding inhibition, Inhibition (%)
Numbered stars: 1 amine (or outer) side, 2 acyl side, 3 side chain; on linkers, the order of the positions; unused ones are H or OH. Square brackets hold non-standard residues; d marks the D form. Peptide text beside a SMILES is read from it. * marks the point of attachment. X1 = CC[C@](N[*:1])(C(=O)[*:2])c1cccs1; NMeL = CN[C@@H](CC(C)C)C(=O)O; dNle = CCCC[C@@H](N)C(=O)O; Ac6c = NC1(C(=O)O)CCCCC1; Nva = CCC[C@H](N)C(=O)O; For = O=C*
Reported inhibition at 1.1 µM values are given for each entry in this list.
Please respond with the number in % and leave the unit unwritten.

Some molecules with recorded inhibition at 1.1 µM:
[
  {
    "MOLECULE": "CC(C)C[C@@H]1NC(=O)C2(CCCCC2)NC(=O)[C@@H]2CCCN2C(=O)[C@@H](CC(=O)O)NC(=O)[C@@H](Cc2c[nH]c3ccccc23)NC1=O [Example 64, cyclo(-DTrp-DAsp-Pro-Ac6 c-Leu-)] (cyclo([Ac6c]L[dW][dD]P))",
    "SYSTEM NAME": "endothelin receptor (membrane of smooth muscle tissue of porcine aorta) (Sus scrofa)",
    "VALUE TYPE": "inhibition at 1.1 µM",
    "UNIT SPEC": "%",
    "RECORDED VALUE": 83
  },
  {
    "MOLECULE": "CC(C)C[C@@H]1NC(=O)[C@@H](C(C)C)NC(=O)[C@H](C)NC(=O)[C@@H](CC(=O)O)NC(=O)[C@@H](Cc2c[nH]c3ccccc23)NC1=O [Example 12, cyclo(-DTrp-DAsp-Ala-DVal-Leu-)] (cyclo(A[dV]L[dW][dD]))",
    "SYSTEM NAME": "endothelin receptor (membrane of smooth muscle tissue of porcine aorta) (Sus scrofa)",
    "VALUE TYPE": "inhibition at 1.1 µM",
    "UNIT SPEC": "%",
    "RECORDED VALUE": 75
  },
  {
    "MOLECULE": "CC(C)C[C@H]1C(=O)N[C@H](Cc2c[nH]c3ccccc23)C(=O)N[C@H](CC(=O)O)C(=O)N2CCC[C@H]2C(=O)N[C@H](C(C)C)C(=O)N1C [Example 69, cyclo(-DTrp-DAsp-Pro-DVal-MeLeu-)] (cyclo([NMeL][dW][dD]P[dV]))",
    "SYSTEM NAME": "endothelin receptor (membrane of smooth muscle tissue of porcine aorta) (Sus scrofa)",
    "VALUE TYPE": "inhibition at 1.1 µM",
    "UNIT SPEC": "%",
    "RECORDED VALUE": 85
  }
]

inhibition at 1.1 µM for CCC[C@@H]1NC(=O)[C@@H](C(C)C)NC(=O)[C@@H]2CCCN2C(=O)[C@@H](CC(=O)O)NC(=O)[C@@H](Cc2cn(C=O)c3ccccc23)NC1=O [Example 56, cyclo(-DTrp(CHO)-DAsp-Pro-DVal-Nva-)] (cyclo([Nva][dW](For)[dD]P[dV])) is 84

The reported value for CCCC[C@H]1NC(=O)[C@@H]2CCCN2C(=O)[C@@H](CC(=O)O)NC(=O)[C@@H](Cc2c[nH]c3ccccc23)NC(=O)[C@H](CC(C)C)NC1=O [Example 33, cyclo(-DTrp-DAsp-Pro-DNle-Leu-)] (cyclo(L[dW][dD]P[dNle])) in terms of inhibition at 1.1 µM is 77

CC[C@]1(c2cccs2)NC(=O)[C@@H]2CCCN2C(=O)[C@@H](CC(=O)O)NC(=O)[C@@H](Cc2c[nH]c3ccccc23)NC(=O)[C@H](CC(C)C)NC1=O [Example 82, cyclo(-DTrp-DAsp-Pro-DEtg-Leu-)] (cyclo(L[dW][dD]P[X1])) yielded inhibition at 1.1 µM of 81

Per the records, this molecule ( CC(C)C[C@@H]1NC(=O)[C@@H](C(C)C)NC(=O)[C@H](CCC(=O)O)NC(=O)[C@@H](CC(=O)O)NC(=O)[C@@H](Cc2c[nH]c3ccccc23)NC1=O [Example 23, cyclo(-DTrp-DAsp-Glu-DVal-Leu-)] (cyclo(E[dV]L[dW][dD])) ) has inhibition at 1.1 µM equal to 72

Reported inhibition at 1.1 µM of CC(C)C[C@@H]1NC(=O)[C@@H]([C@H](C)O)NC(=O)[C@H](C)NC(=O)[C@@H](CC(=O)O)NC(=O)[C@@H](Cc2c[nH]c3ccccc23)NC1=O [Example 29, cyclo(-DTrp-DAsp-Ala-DThr-Leu-)] (cyclo(A[dT]L[dW][dD])) : 15

FYI, the data here is from patent US5114918A.
